Please respond with reported GI50 for every item in the list.
test system: SNB-75; assay: NCI tumour cell line growth inhibition, 48 h
The source made the active and inactive calls. No stated cut-off is given here; in the data, active = GI50 up to about 1.1 µM and inactive = higher.

Inquiry: // lookup GI50 for O=c1c2ccccc2c(=O)n2n1-c1cccc(c1)CSSCc1cccc-2c1
Reply text: > 10 µM (inactive)

Inquiry: Input O=C(CC(=O)Nc1ccccc1)NNC(Sc1ccccc1)c1cc(/N=N/c2ccc(Br)cc2)ccc1O (stereo not drawn)
Reply text: 3.15 µM (inactive)

Inquiry: Input CCOC(=O)C(NC(=O)CC(C)C)(N1CCN(c2cc3c(cc2F)c(=O)c(C(=O)O)cn3C2CC2)CC1)C(F)(F)F (stereo not drawn)
Reply text: 21.4 µM (inactive)

Inquiry: Input O=C(/C=C/c1ccccc1F)c1ccc(Cl)c(Cl)c1
Reply text: 39.3 µM (inactive)

Inquiry: Input CC1=C(C(=O)OCCc2ccc([N+](=O)[O-])cc2)C(c2ccccc2[N+](=O)[O-])C(C(=O)OC(C)C)=C(C)N1 (stereo not drawn)
Reply text: 4.24 µM (inactive)

Inquiry: Input c1ccc(C2=NN(c3ccccc3)C3(S2)SC(c2ccccc2)(c2ccccc2)c2ccccc23)cc1 (stereo not drawn)
Reply text: > 100 µM (inactive)

Inquiry: Input O=[N+]([O-])C(/C=C(\Cl)[N+](=O)[O-])=C(Nc1ccccc1)Nc1ccccc1
Reply text: 1.26 µM (inactive)

Inquiry: Input CN(C)Cc1cc(C(=O)/C=C/c2c(F)cccc2Cl)cc(CN(C)C)c1O
Reply text: 8.53 µM (inactive)

---

Please respond with reported GI50 for every item in the list.
system: A498; test: NCI tumour cell line growth inhibition, 48 h
Active and inactive are the calls of the source. Cut-off read from the data, not from the text of the source: active = GI50 up to about 1.1 µM and inactive = higher.

Inquiry: // lookup GI50 for CCN(CC)CCn1c2cc3c(cc2c(=O)c2cccnc21)OCCO3
Reply text: 0.0912 µM (active)

Inquiry: Input O=C1CC(c2ccc[nH]2)=NN1c1ccccc1
Reply text: > 100 µM (inactive)

Inquiry: Input O=C1/C(=C\c2ccccc2)C(NC2CCCCC2)c2ccccc21 (centres undefined)
Reply text: 18.6 µM (inactive)

Inquiry: Input CC(=O)ON(OC(C)=O)c1ccc(C)cc1
Reply text: > 100 µM (inactive)

Inquiry: Input CC(C)(C)c1ccc(C(O)(c2ccc(C(C)(C)C)cc2)c2ccc(C(C)(C)C)cc2)cc1
Reply text: > 100 µM (inactive)

Inquiry: Input Cn1c(=O)c2c([nH]/c(=N/N=C/c3ccccc3C(=O)O)n2C)n(C)c1=O
Reply text: > 100 µM (inactive)

Inquiry: Input O=C1CC(C(CC(=O)c2ccccc2)c2ccccc2)C(=O)c2ccccc2N1 (centres undefined)
Reply text: > 100 µM (inactive)

Inquiry: Input CC(=O)O[C@H]1C(=O)[C@@]2(C)C(C(OC(=O)c3ccccc3)[C@]3(O)CC(OC(=O)[C@H](OC(=O)CCC(=O)O)C(NC(=O)c4ccccc4)c4ccccc4)C(C)=C1C3(C)C)C1(OC(C)=O)COC1C[C@@H]2O (some centres undefined)
Reply text: < 0.0118 µM (active)

Inquiry: Input CCOC(=O)c1c2cccccc2n2c(=O)cc(C)nc12
Reply text: > 100 µM (inactive)

---

tested on: DU-145; experiment: NCI tumour cell line growth inhibition, 48 h
Active and inactive are the calls of the source. Cut-off read from the data, not from the text of the source: active = GI50 up to about 1.1 µM and inactive = higher.
Metric Name: GI50

Inquiry: // lookup GI50 for CCOP(=O)(OCC)c1cc(-c2ccccc2)ccc1N
Reply text: > 100 µM (inactive)

Inquiry: Input O=C1Nc2ccccc2/C1=N/Nc1ccc([N+](=O)[O-])cc1[N+](=O)[O-]
Reply text: 7.82 µM (inactive)

Inquiry: Input CC1(C)S[C@@H]2[C@H](NC(=O)/C=C/c3ccccc3)C(=O)N2[C@H]1C(=O)O
Reply text: > 100 µM (inactive)

Inquiry: Input CC(C)Oc1cccc(N2C(CCc3c[nH]c4ccc(Br)cc34)=NS(=O)(=O)c3cnccc32)c1
Reply text: 94.4 µM (inactive)

Inquiry: Input O=C1O/C(=C(\Br)c2ccc([N+](=O)[O-])cc2)c2ccccc21
Reply text: > 100 µM (inactive)

Inquiry: Input Cc1ccc(NC(=O)S(N)(c2ccc(C)cc2)[N+](=O)[O-])cc1 (stereo not drawn)
Reply text: 89.7 µM (inactive)

Inquiry: Input O=C(Cn1c2ccc(Br)cc2c2nc3ccccc3nc21)NCc1ccccc1
Reply text: > 100 µM (inactive)

Inquiry: Input CC1=C(C(=O)OCCc2ccc([N+](=O)[O-])cc2)C(c2ccccc2[N+](=O)[O-])C(C(=O)OC(C)C)=C(C)N1 (stereo not drawn)
Reply text: 9.04 µM (inactive)

Inquiry: Input CC1OC(OC2C(OC(=O)[C@@H]3CC(C)(C)C[C@@H]4C5=CC[C@@H]6[C@@]7(C)C[C@H](O)[C@H](OC8OC(CO)C(O)C(O)C8O)[C@@](C)(CO)C7[C@H](O)C[C@@]6(C)[C@]5(C)C[C@@H](O)[C@H]43)OCC(O)C2O)C(O)C(O)C1O (stereo partly drawn)
Reply text: > 15 µM (inactive)

Inquiry: Input Oc1c(C(O)(c2ccccc2)c2ccc3ccccc3c2O)ccc2ccccc12
Reply text: 15.6 µM (inactive)

Inquiry: Input CC(C)C(CC(=O)OCC(CO)OC(=O)CC(C(C)C)C(C)C)C(C)C (stereo not drawn)
Reply text: 15.4 µM (inactive)

Inquiry: Input Cc1cc(C)nc(NS(=O)(=O)c2ccc(NC(=O)c3cc([N+](=O)[O-])cc([N+](=O)[O-])c3)cc2)n1
Reply text: > 100 µM (inactive)

Inquiry: Input Cc1cc(S(=O)(=O)Nc2nc3ccccc3c(=O)n2N)c(S)cc1Cl
Reply text: 43 µM (inactive)

Inquiry: Input COc1ccc(-c2c3ccccc3c(-c3ccc(OCCBr)cc3)c3ccccc23)cc1
Reply text: > 100 µM (inactive)

Inquiry: Input Fc1cc(C2=Nn3c(CNc4ccc(Cl)cc4)nnc3S/C2=C\c2ccc(-c3ccc(Cl)cc3)o2)c(Cl)cc1Cl
Reply text: 65 µM (inactive)

Inquiry: Input COC1OC(Cn2cc([N+](=O)[O-])nc2C)C(O)C(O)C1O (stereo not drawn)
Reply text: > 100 µM (inactive)

Inquiry: Input C=CCc1ccccc1C1CC2(C(=O)OC)OC1C(C(=O)OC)=C2C(=O)OC (stereo not drawn)
Reply text: > 10 µM (inactive)

Inquiry: Input O=C(O)CCc1nc2c(n1-c1ccccc1)C(=O)c1ccccc1C2=O
Reply text: > 100 µM (inactive)

---

system: MDA-MB-435; assay: NCI tumour cell line growth inhibition, 48 h
Activity calls are given as the source filed them. Cut-off read from the data, not from the text of the source: active = GI50 up to about 1.1 µM and inactive = higher.
Metric Name: GI50

Inquiry: // lookup GI50 for O=[N+]([O-])C(/C=C(\Cl)[N+](=O)[O-])=C(Nc1ccccc1)Nc1ccccc1
Reply text: 5 µM (inactive)

Inquiry: Input CCCC(=O)N(C(=O)CCC)C1=C(Cl)C(=O)c2ccccc2C1=O
Reply text: 4.63 µM (inactive)

Inquiry: Input c1ccc(/C(=N/Nc2ccncn2)c2ccccn2)cc1
Reply text: 48.6 µM (inactive)

Inquiry: Input CN(C)Cc1cc(C(=O)/C=C/c2c(F)cccc2Cl)cc(CN(C)C)c1O
Reply text: 13.8 µM (inactive)

Inquiry: Input O/N=C1\CCc2nonc2\C1=N/Nc1ccccc1
Reply text: > 100 µM (inactive)

Inquiry: Input N#CC1=CNc2sccc2S1(=O)=O
Reply text: 89.7 µM (inactive)

Inquiry: Input COC(=O)C1C(O)CCC2CN3CCc4c([nH]c5cccc(OC)c45)C3CC21 (stereo unspecified)
Reply text: > 100 µM (inactive)

Inquiry: Input COc1cc(C2c3cc4c(cc3[C@@H](Nc3ccc([N+](=O)[O-])cc3)C3COC(=O)[C@H]23)OCO4)cc(OC)c1O (stereo partly specified)
Reply text: 6.11 µM (inactive)

Inquiry: Input CC1(CCCO)CCCCCC(C)(CCCO)C1=O (stereo unspecified)
Reply text: > 100 µM (inactive)

Inquiry: Input COc1c(C)c(C/C=C(\C)CC/C=C(\C)CC/C=C(\C)CC/C=C(\C)CCC=C(C)C)c(OC)c(OC)c1OC
Reply text: 31.1 µM (inactive)

Inquiry: Input CC(=O)C1=C(c2ccccc2)N(C2OC(CO)C(O)C(O)C2O)C(S)=C(C#N)C1c1ccc(Cl)cc1 (stereo unspecified)
Reply text: 23.6 µM (inactive)

Inquiry: Input CCOc1ccc(Nc2nc(N)nc(N)c2N)cc1
Reply text: 25.1 µM (inactive)

Inquiry: Input COc1cc2c(cc1OC)C(=O)/C(=C/c1ccc([N+](=O)[O-])cc1)CC2
Reply text: > 10 µM (inactive)

Inquiry: Input CCN(CC)CCn1c2cc3c(cc2c(=O)c2cccnc21)OCCO3
Reply text: > 10 µM (inactive)

Inquiry: Input COc1ccc(Nc2c[nH]c(=O)[nH]c2=O)cc1
Reply text: > 100 µM (inactive)

Inquiry: Input CC(C)C(CC(=O)OCC(CO)OC(=O)CC(C(C)C)C(C)C)C(C)C (stereo unspecified)
Reply text: 13.7 µM (inactive)

Inquiry: Input CCOC(=S)SCC(=O)O
Reply text: > 100 µM (inactive)

Inquiry: Input COC(=O)c1c(O)ccc2c1c1c(n2CCc2ccccc2)C(=O)c2ccccc2C1=O
Reply text: 7.03 µM (inactive)

Inquiry: Input CC1=C(C(=O)OCCc2ccc([N+](=O)[O-])cc2)C(c2ccccc2[N+](=O)[O-])C(C(=O)OC(C)C)=C(C)N1 (stereo unspecified)
Reply text: 5 µM (inactive)

Inquiry: Input N#Cc1c(-c2ccccc2)c(C#N)c(=O)n(NS(=O)(=O)c2ccccc2)c1O
Reply text: > 100 µM (inactive)

Inquiry: Input O=C(NC(Nc1ccc(F)c(Cl)c1)(C(F)(F)F)C(F)(F)F)OCc1ccccc1
Reply text: 32.1 µM (inactive)
